Assay: Inhibition of DOT1L in human KOPN8 cells assessed as reduction in cell viability after 72 hrs by alamar blue assay
measurement-type: IC50 (µM)
Just the number in µM, nothing appended.

**Q:** Name the recorded IC50 for Fc1cccc(-c2nn3c(Cn4nnc5ccccc54)nnc3s2)c1 .
**A:** 28.1

====

Assay: Inhibition of DOT1L in human MV4-11 cells assessed as reduction in cell viability after 72 hrs by alamar blue assay
Record form. Attribute: pIC50. Fill in for each entry.
Please keep in mind that pIC50 is minus log10 of the molar concentration; only the number is needed.

**Q:** Name the recorded pIC50 for Brc1cccc(-c2nn3c(Cn4cnc5ccccc54)nnc3s2)c1 .
**A:** 4.57

**Q:** Name the recorded pIC50 for Fc1ccc(-c2nn3c(Cn4nnc5ccccc54)nnc3s2)cc1 .
**A:** 5.10

**Q:** Name the recorded pIC50 for c1ccc(Cc2nn3c(Cn4nnc5ccccc54)nnc3s2)cc1 .
**A:** 4.31

**Q:** Name the recorded pIC50 for c1ccc2c(c1)nnn2Cc1nnc2sc(-c3ccc4c(c3)OCCO4)nn12 .
**A:** 4.39

**Q:** Name the recorded pIC50 for CC(C)(C)c1ccc(-c2nn3c(Cn4nnc5ccccc54)nnc3s2)cc1 .
**A:** 4.88

**Q:** Name the recorded pIC50 for Fc1cccc(-c2nn3c(Cn4nnc5ccccc54)nnc3s2)c1 .
**A:** 4.66

**Q:** Name the recorded pIC50 for COc1cccc(-c2nn3c(Cn4nnc5ccccc54)nnc3s2)c1 .
**A:** 4.19

**Q:** Name the recorded pIC50 for c1ccc2c(c1)nnn2Cc1nnc2sc(-c3ccc4c(c3)OCO4)nn12 .
**A:** 5.17

**Q:** Name the recorded pIC50 for Cc1ccc(-c2nn3c(Cn4cnc5ccccc54)nnc3s2)cc1C .
**A:** 4.19
